Source: ChEMBL document CHEMBL1201862

Tested on: SK-OV-3
Experiment: NCI tumour cell line growth inhibition, 48 h
The source made the active and inactive calls. Rule as the data show it: active = GI50 up to about 1.1 µM and inactive = higher.

[
  {
    "Molecule": "O=C(CC(C(=O)c1ccsc1)c1cccs1)c1ccccc1 (stereo not drawn)",
    "GI50": "> 100 µM (inactive)"
  },
  {
    "Molecule": "Nc1cc2c(C3OC(CO)C(O)C3O)n[nH]c2c(=S)[nH]1 (stereo not drawn)",
    "GI50": "> 100 µM (inactive)"
  },
  {
    "Molecule": "COc1nc(N)nc2nc[nH]c12",
    "GI50": "129 µM (inactive)"
  },
  {
    "Molecule": "OCCCN=C1CCCCC1",
    "GI50": "> 100 µM (inactive)"
  },
  {
    "Molecule": "COc1ccc(NC(=O)C2=C(SC)C(C#N)C(=O)N=C2N)cc1 (stereo not drawn)",
    "GI50": "> 100 µM (inactive)"
  },
  {
    "Molecule": "Cc1ccc(S(=O)(=O)Nn2c(S)c(C#N)c(-c3ccc(Cl)cc3)c(C#N)c2=O)cc1",
    "GI50": "61 µM (inactive)"
  },
  {
    "Molecule": "COc1ccccc1NC(=O)C1=C(C)NC(C)=C(C(=O)Nc2ccccc2OC)C1c1ccco1",
    "GI50": "7.01 µM (inactive)"
  },
  {
    "Molecule": "O=C(/C=C1\\C[C@H]2C=Nc3ccccc3C(=O)N2C1)NCCCNC(=O)/C=C1\\C[C@H]2C=Nc3ccccc3C(=O)N2C1",
    "GI50": "18.5 µM (inactive)"
  },
  {
    "Molecule": "O=[As]O",
    "GI50": "> 100 µM (inactive)"
  },
  {
    "Molecule": "CC(C)=CCC[C@H](C)[C@H]1CC[C@@H](C)c2cc(O)c(C)cc21",
    "GI50": "19.1 µM (inactive)"
  },
  {
    "Molecule": "CC1=NC(C(=O)O)Cc2c1[nH]c1ccccc21 (stereo not drawn)",
    "GI50": "> 100 µM (inactive)"
  },
  {
    "Molecule": "O=C(NNC(=S)NCc1ccccc1)C12CC3CC(CC(C3)C1)C2",
    "GI50": "> 100 µM (inactive)"
  },
  {
    "Molecule": "COc1cccc(NC(=O)c2c(N)n[nH]c2SC)c1",
    "GI50": "> 100 µM (inactive)"
  },
  {
    "Molecule": "Nc1cc2nc(O)c(O)nc2cc1N",
    "GI50": "> 100 µM (inactive)"
  },
  {
    "Molecule": "O=C(O)c1nc2nc(Cl)c(Cl)nc2[nH]1",
    "GI50": "> 100 µM (inactive)"
  },
  {
    "Molecule": "CCOC(=O)CNC(=O)C(CCC(=O)N(C)O)NC(=O)CCC(N)C(=O)O (stereo not drawn)",
    "GI50": "> 100 µM (inactive)"
  },
  {
    "Molecule": "COC(=O)C12C34C=CC5(CCC6(C=CC1(CC3)O6)C52C(=O)OC)O4 (stereo not drawn)",
    "GI50": "> 100 µM (inactive)"
  },
  {
    "Molecule": "CCc1nn(CN2CCN(C)CC2)c(=S)n1/N=C\\c1ccc(-c2ccc([N+](=O)[O-])cc2)o1",
    "GI50": "40.7 µM (inactive)"
  }
]
